From: patent US20050101595A1

Tested target: CDK2/Cyclin A (Homo sapiens, UniProt P24941)
Measurement description: Inhibition of CDK2/Cyclin A Retinoblastoma Kinase Activity
Condition notes: apparent Ki, CDK2/proteolyzed cyclin A, Rb fragment substrate, 25 μM ATP
Structures can show the parent of a compound that is named as a salt.
# Ki annotations
The figure you give is taken to be in nM; do not add the unit.

Some solved cases for reference:
INSERT INTO assay_data (compound, quantitative_readout) VALUES
  ('CN1CC[C@H](Oc2ccc(S(=O)(=O)N3CCC(Nc4nc(N)c(C(=O)c5c(F)cccc5F)s4)CC3)cn2)C1 [Example H28, Hydrochloride]', 0.41),
  ('Nc1nc(NC2CCN(S(=O)(=O)c3ccc(CCN4C[C@@H]5[C@@H](N)[C@@H]5C4)nc3)CC2)sc1C(=O)c1c(F)cccc1F [Example N10, Hydrochloride Salt]', 1.3),
  ('Nc1ccc(S(=O)(=O)N2CCC(Nc3nc(N)c(C(=O)c4c(F)cccc4F)s3)CC2)cn1', 0.6),
  ('Nc1nc(NC2CCN(S(=O)(=O)c3ccc(CCN4CCOCC4)nc3)CC2)sc1C(=O)c1c(F)cccc1F [Example N3, Hydrochloride Salt]', 1.1);

Per the records, this compound ( Nc1nc(NC2CCN(C(=O)c3ccc(Br)cc3)CC2)sc1C(=O)c1c(F)cccc1F ) has Ki equal to 81
